# System Tested: T1, human LAP-TGFβ1 (construct not stated) (human, UniProt P01137 30-390)
# T1 construct: also called human LAP-TGFβ isoform 1; titrant
# T1 sequence (P01137 30-390 limits assumed): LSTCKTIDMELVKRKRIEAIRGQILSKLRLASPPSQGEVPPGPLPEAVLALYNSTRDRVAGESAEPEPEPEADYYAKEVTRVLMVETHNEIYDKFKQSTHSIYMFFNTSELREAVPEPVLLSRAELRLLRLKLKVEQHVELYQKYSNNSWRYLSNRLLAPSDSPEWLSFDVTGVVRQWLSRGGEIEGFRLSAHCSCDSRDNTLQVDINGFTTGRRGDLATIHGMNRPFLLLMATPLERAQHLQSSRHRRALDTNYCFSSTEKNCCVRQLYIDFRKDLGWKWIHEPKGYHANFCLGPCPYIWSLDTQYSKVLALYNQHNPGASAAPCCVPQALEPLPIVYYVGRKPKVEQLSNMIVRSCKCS
# Run Description: KinExA, mAb as constant binding partner
Answer each item with its documented kon.
Answers are plain numbers, in M⁻¹ s⁻¹.

12BLM (antibody, human IgG1, kappa, L234A L235A, V domains shown, IgG1 L234A L235A D265S/kappa; also called 75BLH; 48BMD) VH: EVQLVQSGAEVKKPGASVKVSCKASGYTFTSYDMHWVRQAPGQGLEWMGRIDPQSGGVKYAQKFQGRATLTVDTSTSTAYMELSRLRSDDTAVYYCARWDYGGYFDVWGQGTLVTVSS VL: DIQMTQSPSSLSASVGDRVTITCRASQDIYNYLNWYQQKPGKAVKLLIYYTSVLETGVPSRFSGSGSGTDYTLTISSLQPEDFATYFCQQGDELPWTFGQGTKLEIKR : 2.04e+07
18BLM (antibody, human IgG1, kappa, L234A L235A, V domains shown, IgG1 L234A L235A D265S/kappa; also called 81BLH; 54BMD) VH: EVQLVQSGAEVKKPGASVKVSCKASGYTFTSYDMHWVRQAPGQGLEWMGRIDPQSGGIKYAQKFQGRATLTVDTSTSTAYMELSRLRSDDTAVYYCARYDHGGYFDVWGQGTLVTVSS VL: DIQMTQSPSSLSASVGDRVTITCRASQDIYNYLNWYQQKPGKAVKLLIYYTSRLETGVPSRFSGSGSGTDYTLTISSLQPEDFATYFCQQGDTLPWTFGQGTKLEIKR : 98300
16BLM (antibody, human IgG1, kappa, L234A L235A, V domains shown, IgG1 L234A L235A D265S/kappa; also called 79BLH; 52BMD) VH: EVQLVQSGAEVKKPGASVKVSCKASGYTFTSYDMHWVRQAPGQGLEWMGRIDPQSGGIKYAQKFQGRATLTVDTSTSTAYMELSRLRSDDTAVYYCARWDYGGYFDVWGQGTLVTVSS VL: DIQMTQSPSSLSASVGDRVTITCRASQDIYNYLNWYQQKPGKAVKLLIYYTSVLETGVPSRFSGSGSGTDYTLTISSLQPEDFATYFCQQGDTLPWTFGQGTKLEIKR : 5.03e+06

Now for the binder whose kon we want.
Reported kon for 19BLM (antibody, human IgG1, kappa, L234A L235A, V domains shown, IgG1 L234A L235A D265S/kappa; also called 82BLH; 55BMD) VH: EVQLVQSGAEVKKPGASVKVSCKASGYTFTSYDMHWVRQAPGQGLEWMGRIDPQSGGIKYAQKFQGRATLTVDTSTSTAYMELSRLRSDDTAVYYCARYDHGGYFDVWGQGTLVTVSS VL: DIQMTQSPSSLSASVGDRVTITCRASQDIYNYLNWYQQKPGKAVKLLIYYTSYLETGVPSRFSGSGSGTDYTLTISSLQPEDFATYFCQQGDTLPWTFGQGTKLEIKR was 29200

The measured values listed here are drawn from patent US20230272056A1.
